- method summary: Inhibition of human PDE2 using FAM-labeled cAMP as substrate after 60 mins in presence of cGMP by florescence polarization assay
Record form. Attribute: Ki. Fill in for each entry.

`CC[C@@H](NC(=O)c1cc(=O)[nH]c(N(C)C)n1)c1ccc(SC(F)(F)F)cc1` has a reported Ki of 0.69 to 5.05 nM

In plain terms, `CC(C)[C@@H](NC(=O)c1cc(=O)[nH]c(N(C)C)n1)c1ccc(SC(F)(F)F)cc1` has a documented Ki of 0.37 to 5.1 nM

The recorded Ki for `C[C@@H](NC(=O)c1cc(=O)[nH]c(N(C)C)n1)c1ccc(SC(F)(F)F)cc1` is 0.32 to 0.82 nM

GET /value?item= `C[C@@H](NC(=O)c1cc(=O)[nH]c(N(C)C)n1)c1ccc(OC(F)(F)F)c(Cl)c1` &field=Ki returns 1.6 nM

Short answer for `CN(C)c1nc(C(=O)NC2(c3ccc(C(F)(F)F)c(F)c3)CC2)cc(=O)[nH]1` : Ki was 0.9 to 0.96 nM

The compound `CN(C)c1nc(C(=O)N[C@@H](c2ccc(OC(F)(F)F)c(F)c2)C(C)(C)O)cc(=O)[nH]1` showed Ki equal to 0.12 nM
